- TARGET_OR_SYSTEM: T1, human Claudin18.2 (human)
- T1 construct: also called CLDN18.2
- TEST_DESCRIPTION: FACS, Claudin18.2-HEK293 cells
Each entry below carries its reported Span.
Write no unit; give the number alone.

Some solved entries appear below for comparison.
chimeric 246B5F2 (antibody, human IgG1, kappa, V domains shown, chimeric, human IgG1/kappa constant regions; also called 246B5F2-Chimeric) VH: EVMLVESGGGLMKPGGSLKLSCAASEFTFSNYAMSWVRQTPEKRLEWVATISSGRSSTYYPDSVKGRFTISRDNAKNTLYLQMSSLRSEDTAMYYCAGLGRGNAMEYWGQGTSVTVSS VL: DIVMTQSPSSLTVTAGEKVTLSCKSSQSLLNSGNQKNYLTWYQQKPGQPPKLLIYWASTRESGVPDRFTGSGSGTDFILTINSVQAEDLAVYYCQNAYSYPFTFGSGTKLEIKR : 12400
humanized 207F8G5-VH1.1 + VL1.1 (antibody, human IgG1, kappa, V domains shown, humanized, human IgG1/kappa constant regions) VH: QVQLVQSGAEVKKPGASVKVSCKASGFTFTSYNIHWVKQAPGQGLEWMGYISPGNGGSNYNLKFKDRVTMTSDTSISTAYMELSRLRSDDTAVYFCATGRGFAYWGQGTLVTVSS VL: DIVMTQSPDSLAVSPGERATMSCKSSQSLFNSGNQKNYLIWYQQKPGQPPKLLIYRASTRDSGVPDRFSGSGSGTDFTLTISSLQAEDVAVYYCQNDYSYPLTFGGGTKLEIKR : 14000

# context switch: different binder, same Span
Challenge: Report Span, nothing else, for this binder: humanized 412B6E4-VH1.1 + VL1.1 (antibody, human IgG1, kappa, V domains shown, humanized, human IgG1/kappa constant regions) VH: EVQLVESGGGLVQPGGSLRLSCAASGFTFSSFGVHWVRQAPGKGLEWVAYISSGSSTIYYAHSVKGRFTISRDNAKNSLFLQMNSLRAEDTAVYYCARFYYGNSFAYWGQGTLVTVSS VL: DIVMTQSPDSLAVSLGERATMSCKSSQSLLNSGNQKNYLTWYQQKPGQPPKMLIYWASTRESGVPDRFSGSGSGTDFTLTISSLQAEDVAVYYCQNAYTYPLTFGQGTKLEIKR
Response given: 71300
